tested on: SR; experiment: NCI tumour cell line growth inhibition, 48 h
Active and inactive are the calls of the source. No stated cut-off is given here; in the data, active = GI50 up to about 1.1 µM and inactive = higher.
Respond with a class label; see class 1 for active, class 0 for inactive

[[record]]
compound = "CNc1ccc(OC)cc1S(=O)(=O)c1ccccc1[N+](=O)[O-]"
group_label = "class 0"

[[record]]
compound = "N#CC1(Cc2ccccc2)CCCCN1C(=O)c1ccccc1 (stereo not drawn)"
group_label = "class 0"

[[record]]
compound = "COc1ccc(N2C(=O)C3c4[nH]c5ccccc5c4C4CCCCCCCCCCC4C3C2=O)cc1 (stereo not drawn)"
group_label = "class 0"

[[record]]
compound = "CCn1c2ccccc2c(=O)c2c(OC)ccc(OC)c21"
group_label = "class 0"

[[record]]
compound = "C[C@]12CC(c3ccccc3O1)C(C(=O)Nc1nc(C34CC5CC(CC(C5)C3)C4)cs1)C(=O)N2 (stereo partly drawn)"
group_label = "class 0"

[[record]]
compound = "CC(=O)OCC12CCC3C4(C)CCCC(C)(C)C4CCC3(C)C1CC(C1=CC(=O)OC1O)O2 (stereo not drawn)"
group_label = "class 1"

[[record]]
compound = "CCC1=CC2CC(C(=O)OC)C1(N(C)C)C2=O (stereo not drawn)"
group_label = "class 0"

[[record]]
compound = "CCCCCCCC(=O)OC(CBr)COC(=O)C(C)(C)C (stereo not drawn)"
group_label = "class 0"


Request: Please let me know the test result on file for CC(NC1=CC(=O)c2ncccc2C1=O)C(O)c1ccccc1 (stereo not drawn) .
Response: class 0

Request: Please let me know the test result on file for Nc1nccc(Nc2ccc(S(N)(=O)=O)cc2)n1 .
Response: class 0

Request: Please let me know the test result on file for NC(=O)CSc1nc2ccccc2c(=O)n1N .
Response: class 0

Request: Please let me know the test result on file for Nc1nc(Cl)cc(NC23CC4CC(CC(C4)C2)C3)n1 .
Response: class 0

Request: Please let me know the test result on file for N=C(N)N/N=C/c1c(-c2ccccc2[N+](=O)[O-])nc2sccn12 .
Response: class 0

Request: Please let me know the test result on file for C(=N\c1ccc(-c2nc3ccccc3o2)cc1)/c1ccco1 .
Response: class 0

Request: Please let me know the test result on file for O=C(O)c1nnsc1-c1ccc(-c2snnc2C(=O)O)cc1 .
Response: class 0

Request: Please let me know the test result on file for NCC[Se][Se]CCN .
Response: class 0

Request: Please let me know the test result on file for CCCCS(=O)(=O)CCC(N)C(=O)O (stereo not drawn) .
Response: class 0

Request: Please let me know the test result on file for Cc1ccc2sc3ccc(N)cc3c(=O)c2c1 .
Response: class 0

Request: Please let me know the test result on file for COc1ccccc1-n1nnc2c(N)nc(N)nc21 .
Response: class 0

Request: Please let me know the test result on file for Cc1ccc(S(=O)(=O)NNC(=O)c2cc(C)c(C)cc2N)cc1 .
Response: class 0

Request: Please let me know the test result on file for COC(=O)C1=C(O)C(C(=O)OC)[C@]2(O)[C@H](C(=O)OC)[C@H]1C[C@@H](c1ccc(C(F)(F)F)cc1)[C@H]2C(=O)OC (stereo partly drawn) .
Response: class 0

Request: Please let me know the test result on file for Cc1ccc(S(=O)(=O)N/N=C2\CC3C4CCC3C2C4)cc1 (stereo not drawn) .
Response: class 0

Request: Please let me know the test result on file for C=CC[P@@]1(=O)O[C@H](c2ccccc2)C(C)N1C(C)C (stereo partly drawn) .
Response: class 0

Value source: ChEMBL document CHEMBL1201862
